System: pigweed (Amaranthus retroflexus)
Assay: Test B pre-/postemergence plant response
Type: in vivo
Conditions: Preemergence, 125 g ai/ha; 0 to 100 scale where 0 is no effect and 100 is complete control
Threshold-based label: Plant response rating, Pigweed under 80 gives Fulfilled, Plant response rating, Pigweed not under 80 gives Not fulfilled.

# input Record Cc1cc(-c2ccccc2Oc2ncc(Cl)cn2)on1 : is its Plant response rating, Pigweed strictly below 80?
# output Not fulfilled

# input Hello, I'm reviewing records and need to know if Plant response rating, Pigweed of CC(C)n1cnc(-c2ccccc2Oc2ncc(Cl)cn2)n1 is below 80. Could you check?
# output Fulfilled

# input Determine whether this compound shows Plant response rating, Pigweed lower than 80 (ties excluded): COc1cccc(Oc2ncc(Cl)cn2)c1-c1cc(C(F)F)on1
# output Not fulfilled

# input Threshold test, Plant response rating, Pigweed < 80: CC(C)(C)c1cc(-c2ccccc2Oc2ncc(Cl)cn2)no1
# output Fulfilled

# input Criterion: Plant response rating, Pigweed strictly below 80. Is it met by CCn1nc(C(F)(F)F)cc1-c1c(C#N)cccc1Oc1ncc(Cl)cn1 ?
# output Not fulfilled

# input Plant response rating, Pigweed strictly < 80 for this compound? Fc1ccc(Oc2ncc(Cl)cn2)c(-c2cc(C(F)F)on2)c1Cl
# output Not fulfilled

# input Problem: For the compound Clc1cnc(Oc2ccccc2-c2cccnc2)nc1 , is Plant response rating, Pigweed under 80?
# output Fulfilled

# input Check if Plant response rating, Pigweed falls below 80 for FC(F)(F)c1cc(-c2ccccc2Oc2ncc(Br)cn2)on1 .
# output Not fulfilled

# input Given Cc1nc(-c2ccccc2Oc2ncc(Cl)cn2)co1 , is recorded Plant response rating, Pigweed strictly lower than 80?
# output Fulfilled

# input Field: below-cutoff. Rule: recorded Plant response rating, Pigweed strictly less than 80. Subject: Cn1nnc(-c2ccccc2Oc2ncc(Br)cn2)n1
# output Fulfilled

# input Record FC(F)(F)c1cnc(Oc2ccccc2-c2cscn2)nc1 : is its Plant response rating, Pigweed strictly below 80?
# output Fulfilled

# input Answer whether the compound FC(F)(F)c1ccc(-c2ccccc2Oc2ncc(Br)cn2)nc1 has Plant response rating, Pigweed strictly less than 80
# output Fulfilled

* * *

Test system: giant foxtail (Setaria faberii)
Experiment: Test D pre-/postemergence plant response
Format: in vivo
Conditions: Preemergence, 125 g ai/ha
experimentalEndpoint: Plant response rating (scale 0 to 100), Foxtail, Giant
# answer = number (no unit)

# input Reported Plant response rating (scale 0 to 100), Foxtail, Giant for giant foxtail (Setaria faberii), given FCc1cc(-c2c(F)cccc2Oc2ncc(Cl)cn2)no1 ?
# output 100

# input # get_value(readout= Plant response rating (scale 0 to 100), Foxtail, Giant, system= giant foxtail (Setaria faberii)) for COc1cccc(Oc2ncc(Cl)cn2)c1-c1cc(C(F)(F)F)no1
# output 100

# input Report Plant response rating (scale 0 to 100), Foxtail, Giant for Cc1cc(-c2ccccc2Oc2ncc(Cl)cn2)on1 tested on giant foxtail (Setaria faberii).
# output 98

# input Checklist item: Plant response rating (scale 0 to 100), Foxtail, Giant tested on giant foxtail (Setaria faberii), entry FC(F)c1cc(-c2c(Cl)cccc2Oc2ncc(Cl)cn2)on1 , value?
# output 100

# input Given the entry Fc1cccc(Oc2ncc(Br)cn2)c1-c1cc(C(F)F)on1 , what Plant response rating (scale 0 to 100), Foxtail, Giant was observed with giant foxtail (Setaria faberii)?
# output 100

# input Record lookup: for giant foxtail (Setaria faberii), what Plant response rating (scale 0 to 100), Foxtail, Giant belongs to N#Cc1cccc(Oc2ncc(Cl)cn2)c1-c1cc(C(F)F)on1 ?
# output 100
